- Tested on: LOC_OS01G67340-cb003;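 further: purified Escherichia coli-expressed rice kinase domain construct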
- Experiment description: thermal shift delta Tm vs DMSO control; higher = stronger stabilization (binding)
- Condition label: 12.5 µM; protein concentration 2 µM
Measured quantity: thermal shift delta Tm (°C)
# output: bare number, implied unit °C

With LOC_OS01G67340-cb003 as the test system, NC(=O)c1cnc(N[C@@H]2CCCC[C@@H]2N)nc1Nc1cccc(-n2nccn2)c1 showed thermal shift delta Tm of 0.99

With LOC_OS01G67340-cb003 as the test system, OC1CCC(Nc2ncc3nc(Nc4c(F)cc(F)cc4F)n([C@H]4CCOC4)c3n2)CC1 (some centres undefined) [Tanzisertib(CC-930)] showed thermal shift delta Tm of 0.54

With LOC_OS01G67340-cb003 as the test system, C[C@@H](NC(=O)c1ncnc(N)c1Cl)c1ncc(C(=O)Nc2cc(C(F)(F)F)c(Cl)cn2)s1 showed thermal shift delta Tm of 0.42

With LOC_OS01G67340-cb003 as the test system, Cc1ccc(NC(=O)Nc2cc(C(F)(F)F)ccc2F)cc1Nc1ccc2c(c1)NC(=O)/C2=C\c1ccc[nH]1 showed thermal shift delta Tm of 1.55

With LOC_OS01G67340-cb003 as the test system, OC(c1cc(-c2ccc(Cl)cc2)nc2ccccc12)C1CCCCN1 (centres undefined) [Vacquinol-1] showed thermal shift delta Tm of 1.06

With LOC_OS01G67340-cb003 as the test system, CCCCNc1ncc2c(-c3ccc(CN4CCN(C)CC4)cc3)cn([C@H]3CC[C@H](O)CC3)c2n1 showed thermal shift delta Tm of 10.1

With LOC_OS01G67340-cb003 as the test system, CNC(=O)c1ccccc1Sc1ccc2c(/C=C/c3ccccn3)n[nH]c2c1 [Axitinib] showed thermal shift delta Tm of -0.05

With LOC_OS01G67340-cb003 as the test system, CCN1C(=O)CNc2ncc(-c3ccc(-c4nc[nH]n4)nc3C)nc21 showed thermal shift delta Tm of -0.28

With LOC_OS01G67340-cb003 as the test system, Cn1nccc1Nc1nccc(-c2ccn([C@H](CO)c3ccc(Cl)c(F)c3)c(=O)c2)n1 showed thermal shift delta Tm of 0.09
